Cited source for all entries: ChEMBL document CHEMBL4689842

- Tested on: U2OS
- assay.method.text: Multiplex assay against U2OS
- Assay type: toxicity, cell-based
- measurement.setup: human, 48 h, 1 µM, compound concentration 1 uM, replicate 2
experimental.readout: Population Membrane Permeable-Phenotype (%)
Provide the reading as a plain figure in %.

Worked examples, 3 molecules total:
>  <molecule>
Cc1cccc(CN2CCN(C(c3ccccc3)c3ccc(Cl)cc3)CC2)c1.Cl.Cl (stereo not given)

>  <reported.measurement>
5

$$$$
>  <molecule>
CNC(=O)Nc1ccc(-c2nc(N3CC4CCC(C3)O4)c3cnn(C4CCC5(CC4)OCCO5)c3n2)cc1

>  <reported.measurement>
5

$$$$
>  <molecule>
CC(C)Oc1ccccc1C(=O)Nc1ccccc1C(=O)Nc1cccc(S(=O)(=O)C(F)(F)F)c1

>  <reported.measurement>
18

$$$$

Exam item: Using U2OS as the test system, report measured Population Membrane Permeable-Phenotype (%) of Cc1ccc2c(c1)c1c(n2CCc2ccc(C)nc2)CCN(C)C1 [LATREPIRDINE] .
Marked response: 16

Exam item: Using U2OS as the test system, report measured Population Membrane Permeable-Phenotype (%) of CCc1nn(CCCN2CCN(c3cccc(Cl)c3)CC2)c(=O)n1CCOc1ccccc1.Cl [NEFAZODONE HYDROCHLORIDE] .
Marked response: 2

---

- Tested on: HEK-293T
- assay.method.text: Multiplex assay against HEK293T
- Format: toxicity, cell-based
- measurement.setup: human, 12 h, 1 µM, compound concentration 1 uM, replicate 1
Criterion: Population Fragmented Nuclei (%) strictly under 10%. Met: satisfied. Not met: not satisfied.

Illustrative cases are given below, each with its answer.
>  <compound>
CCOC(=O)Nc1cc(-c2ccc(C)c(NS(C)(=O)=O)c2)nn2c(C)nnc12

>  <discrete.label>
not satisfied

$$$$
>  <compound>
Cc1cccc(CN2CCN(C(c3ccccc3)c3ccc(Cl)cc3)CC2)c1.Cl.Cl (centres undefined)

>  <discrete.label>
not satisfied

$$$$
>  <compound>
COC(=O)C1=C(C)NC(C)=C(C(=O)OCCCN2CCC(c3ccccc3)(c3ccccc3)CC2)[C@H]1c1cccc([N+](=O)[O-])c1 [NIGULDIPINE]

>  <discrete.label>
satisfied

$$$$
>  <compound>
C=CC(=O)Nc1cccc(Oc2nc(Nc3ccc(N4CCN(C)CC4)cc3OC)ncc2Cl)c1

>  <discrete.label>
not satisfied

$$$$
>  <compound>
CNC(=O)Nc1ccc(-c2nc(N3CC4CCC(C3)O4)c3cnn(C4CCC5(CC4)OCCO5)c3n2)cc1

>  <discrete.label>
not satisfied

$$$$

Exam item: Below 10% on Population Fragmented Nuclei (%)? Entry Cc1nc(N2CC[C@H](O)C2)ncc1-c1cc(C(F)(F)F)cc2[nH]ncc12
Marked response: satisfied

Exam item: Below 10% on Population Fragmented Nuclei (%)? Entry C=CC(=O)Nc1ccc2[nH]c(=O)n(C3CCN(Cc4ccc(-c5nc6cc[nH]c(=O)c6cc5-c5ccccc5)cc4)CC3)c2c1 [Borussertib]
Marked response: not satisfied

Exam item: Below 10% on Population Fragmented Nuclei (%)? Entry CC1=C(C(=O)Nc2cc3cn[nH]c3cc2F)C(c2ccc(C(F)(F)F)cc2)CC(=O)N1 (centres undefined)
Marked response: not satisfied

---

- Tested on: HEK-293T
- assay.method.text: Multiplex assay against HEK293T
- Type: toxicity, cell-based
- measurement.setup: human, 48 h, 1 µM, compound concentration 1 uM, replicate 1
experimental.readout: Population Apoptotic (%)
Provide the reading as a plain figure in %.

Worked examples, 5 compounds total:
>  <item.smiles>
O=c1cc(N2CCOCC2)oc2c(-c3cccc4c3sc3ccccc34)cccc12

>  <Population Apoptotic (%)>
30

$$$$
>  <item.smiles>
CN1CCN(Cc2ccc(Nc3ncc(Cl)c(Nc4ccccc4S(=O)(=O)N(C)C)n3)cc2)CC1

>  <Population Apoptotic (%)>
60

$$$$
>  <item.smiles>
Cc1ccc(C)c(Oc2ccncc2C(=O)N2CCN(C3CC3)c3ccccc32)c1

>  <Population Apoptotic (%)>
41

$$$$
>  <item.smiles>
C[C@]12CC[C@@H]3c4ccc(O)cc4CC[C@H]3[C@@H]1CC[C@@H]2O

>  <Population Apoptotic (%)>
42

$$$$
>  <item.smiles>
COc1ccccc1CN[C@H]1C2CCN(CC2)[C@H]1C(c1ccccc1)c1ccccc1

>  <Population Apoptotic (%)>
48

$$$$

Exam item: Supply Population Apoptotic (%) value. Item: CNC(=O)Nc1ccc(-c2nc(N3CC4CCC(C3)O4)c3cnn(C4CCC5(CC4)OCCO5)c3n2)cc1
Marked response: 62

Exam item: Supply Population Apoptotic (%) value. Item: CC(C)NC(=O)N1CC[C@H](NC2=Nc3cc(F)ccc3N(CC(F)F)c3ccc(Cl)cc32)C1
Marked response: 48

Exam item: Supply Population Apoptotic (%) value. Item: CC(C)c1noc(N2CCC(COc3ccc(-c4ccc(S(C)(=O)=O)cc4)nc3)CC2)n1
Marked response: 37
